The reported measurements were obtained from paper PMC10818931.

# Tested on: CYP1A2
# Experimental Protocol: CYP inhibition (direct and metabolism-dependent) in human hepatic microsomes
# Type: in vitro ADME
# Condition: human, human liver microsomes, pH 7.4; CYP1A2; EBO 0.03–100 μM, M3 1–1000 µM; read-out: as an Inhibitor IC50
pIC50: −log10 of the molar value.
Measured Endpoint: pIC50

Which pIC50 value belongs to NC[C@H]1OB(O)c2c(OCCCO)cccc21 ?
< 4.00

###

# Assay System: P-gp (Homo sapiens, UniProt P08183)
# Sequence (P08183 whole entry): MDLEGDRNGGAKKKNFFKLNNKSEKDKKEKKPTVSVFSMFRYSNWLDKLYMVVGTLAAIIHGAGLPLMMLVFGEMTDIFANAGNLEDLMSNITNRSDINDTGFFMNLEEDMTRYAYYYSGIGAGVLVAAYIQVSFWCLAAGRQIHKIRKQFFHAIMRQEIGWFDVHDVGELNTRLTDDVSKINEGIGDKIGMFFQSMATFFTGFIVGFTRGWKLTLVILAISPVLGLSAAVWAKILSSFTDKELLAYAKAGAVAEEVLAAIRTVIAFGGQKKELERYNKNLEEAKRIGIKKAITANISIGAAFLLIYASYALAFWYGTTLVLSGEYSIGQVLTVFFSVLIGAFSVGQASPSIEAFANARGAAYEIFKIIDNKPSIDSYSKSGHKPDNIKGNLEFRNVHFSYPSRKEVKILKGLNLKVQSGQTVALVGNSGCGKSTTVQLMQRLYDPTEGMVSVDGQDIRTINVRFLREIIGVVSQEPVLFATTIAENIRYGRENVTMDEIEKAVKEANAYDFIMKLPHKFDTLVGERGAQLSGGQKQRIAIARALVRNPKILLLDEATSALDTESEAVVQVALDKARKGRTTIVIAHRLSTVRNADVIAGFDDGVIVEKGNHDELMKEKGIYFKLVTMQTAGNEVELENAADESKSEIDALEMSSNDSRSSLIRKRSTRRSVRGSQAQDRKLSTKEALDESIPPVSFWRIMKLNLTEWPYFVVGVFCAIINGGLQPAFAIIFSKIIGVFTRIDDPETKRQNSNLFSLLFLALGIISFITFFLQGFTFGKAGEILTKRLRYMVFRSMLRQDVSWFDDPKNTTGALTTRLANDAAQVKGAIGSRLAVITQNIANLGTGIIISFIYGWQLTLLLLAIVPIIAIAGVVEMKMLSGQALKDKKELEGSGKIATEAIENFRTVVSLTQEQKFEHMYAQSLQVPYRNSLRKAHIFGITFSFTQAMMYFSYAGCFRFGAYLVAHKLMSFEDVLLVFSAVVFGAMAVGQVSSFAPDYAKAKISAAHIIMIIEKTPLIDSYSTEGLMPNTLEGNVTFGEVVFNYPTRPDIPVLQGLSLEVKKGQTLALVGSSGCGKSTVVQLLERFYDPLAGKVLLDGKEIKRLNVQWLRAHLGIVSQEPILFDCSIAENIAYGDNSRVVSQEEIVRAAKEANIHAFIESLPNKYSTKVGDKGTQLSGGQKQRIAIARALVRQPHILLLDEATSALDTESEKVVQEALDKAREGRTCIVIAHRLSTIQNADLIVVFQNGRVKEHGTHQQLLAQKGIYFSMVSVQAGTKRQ
# Experimental Protocol: Caco-2 efflux ratio without/with P-gp inhibitor (P-gp substrate)
# Assay type: in vitro ADME
# Set-up: host or cells: Caco-2
# Condition: human, with verapamil (100 µM); Caco-2; 1, 10, 100 µM; Verapmil (100 µM); 1–4 h; read-out: Efflux Ratio
# Protocol: ^14C-EBO permeability in Caco-2 Cells (MDR1/Protein Glycoprotein or P-gp) was determined using methodologies described previously. The apparent permeability of ^14C-EBO was determined in both the apical to basolateral and the basolateral to apical directions, in triplicate, at final concentrations of 1, 10, and 100 μM. Cell monolayers were incubated with ^14C-EBO at 37 °C for 1, 2, 3, and 4 h. […]
Measured Endpoint: efflux ratio

Which efflux ratio value belongs to NC[C@H]1OB(O)c2c(OCCCO)cccc21 [EBO, Epetraborole] ?
< 2

###

# Test system: CYP3A4/5
# Experimental Protocol: CYP inhibition (direct and metabolism-dependent) in human hepatic microsomes
# Assay type: in vitro ADME
# Condition: CYP3A4/5 (Atorvastatin); read-out: as an Inhibitor IC50
Measured Endpoint: IC50

Which IC50 value belongs to NC[C@H]1OB(O)c2c(OCCC(=O)O)cccc21 ?
> 1000 µM

###

pIC50: −log10 of the molar value.
# pIC50 per entry for CYP2D6 (Homo sapiens)

NC[C@H]1OB(O)c2c(OCCCO)cccc21 < 4.00

Read the next record carefully.
Notebook: pull reported pIC50 for CYP2D6 (Homo sapiens), entry NC[C@H]1OB(O)c2c(OCCC(=O)O)cccc21
< 3.00

###

# System: CYP3A4/5
# Experimental Protocol: CYP inhibition (direct and metabolism-dependent) in human hepatic microsomes
# Assay type: in vitro ADME
# Condition: human, microsomes, pH 7.4; CYP3A4/5 (Midazolam); read-out: as an Inhibitor IC50
Measured Endpoint: IC50

Notebook: pull reported IC50 for CYP3A4/5, entry NC[C@H]1OB(O)c2c(OCCC(=O)O)cccc21
> 1 mM

###

# System: CYP3A4/5
# Experimental Protocol: CYP inhibition (direct and metabolism-dependent) in human hepatic microsomes
# Format: in vitro ADME
# Condition: human, human hepatic (liver) microsomes, pH 7.4, probe midazolam (1′-hydroxylation); CYP3A4/5 (Midazolam); read-out: as an Inhibitor IC50
pIC50: −log10 of the molar value.
Measured Endpoint: pIC50

Notebook: pull reported pIC50 for CYP3A4/5, entry NC[C@H]1OB(O)c2c(OCCCO)cccc21 [EBO, Epetraborole]
< 4.00
